# IC50 annotations
# Method Description: Displacement of FITC-conjugated JQ1 from […] mutant (unknown origin) expressed in Escherichia coli BL21-DE3 rosetta cells incubated for 15 mins by competitive fluorescence polarization assay
# Set-up: species or system Homo sapiens

Molecule	IC50
COc1ccc2c(c1)C(c1ccc(Cl)cc1)=N[C@@H]([C@@H](C)C(=O)NCCCCCCCCCNC(=O)COc1cccc3c1C(=O)N(C1CCC(=O)NC1=O)C3=O)c1nnc(C)n1-2 (some centres undefined)	130 nM
CCNC(=O)[C@H](C)[C@@H]1N=C(c2ccc(Cl)cc2)c2cc(OC)ccc2-n2c(C)nnc21	160 nM
COc1ccc2c(c1)C(c1ccc(Cl)cc1)=N[C@@H]([C@@H](C)C(=O)NCCCCCNC(=O)COc1cccc3c1C(=O)N(C1CCC(=O)NC1=O)C3=O)c1nnc(C)n1-2 (some centres undefined)	145 nM

Which IC50 value is on record for COC(=O)[C@H](C)[C@@H]1N=C(c2ccc(Cl)cc2)c2cc(OC)ccc2-n2c(C)nnc21 ?
74 nM
